# procedure-text: chemical genetic growth profiling, strain panel (AID 1159580);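 note: tested at 20 µM; growth read once vehicle control cultures reached saturation at 30 °C; 1 = growth at the plate median or of vehicle wells; lower values mean less growth of the strain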
# condition-set: S. cerevisiae deletion strains, growth OD, locus YMR263W, strain SAP30, stronger effect = lower value
The whole screen tested about 5,500 compounds, of which about 2,000 (36%) were called active. Another 18% or so got no clear call; they are omitted. This is one part of the list.
property-label: normalized growth

CC(C)(C)c1cc(-c2csc(-c3ccc(Cl)cc3)n2)cc(C(C)(C)C)c1O | 0.96 (inactive)
CCOc1ccc(/C=C(\C#N)c2cccc(Cl)c2)cc1 | 0.987 (inactive)
OCc1ccc(-c2nn(Cc3ccccc3)c3ccccc23)o1 | 0.991 (inactive)

Bench note: what normalized growth did CCOC(=O)[C@H](CCc1ccccc1)N[C@H]1CCc2ccccc2N(CC(=O)O)C1=O show?
0.993 (inactive)

Quick one: normalized growth for CC(C)(C)c1ccc(-c2nc(-c3cc(C(C)(C)C)c(O)c(C(C)(C)C)c3)cs2)cc1 ?
0.947 (inactive)

Query: normalized growth; subject: O=C(O)c1nn(Cc2ccc(Cl)cc2Cl)c2ccccc12
1 (inactive)

So what does the record say about normalized growth for COc1cc2c(cc1OC)[C@@H]1C(=O)c3ccc4c(c3O[C@@H]1CO2)C=CC(C)(C)O4 ?
1 (inactive)

normalized growth lookup needed for O=C(Nc1cccc(C(=O)Nc2ccc(S(=O)(=O)O)c3cc(S(=O)(=O)O)cc(S(=O)(=O)O)c23)c1)Nc1cccc(C(=O)Nc2ccc(S(=O)(=O)O)c3cc(S(=O)(=O)O)cc(S(=O)(=O)O)c23)c1 , thanks.
0.973 (inactive)

Using the record for CN(C)c1ccc(C(=O)NN)cc1 , report its normalized growth.
0.992 (inactive)

Record request: normalized growth value, item N#CCOc1ccc(Cl)cc1Cl
0.987 (inactive)
